Origin of measurements: ChEMBL document CHEMBL1139224

# key: entry, value: Vd
Assay: Volume of distribution in mouse at 10 mg/kg, iv
Format: ADME, organism-based
Set-up: dose 10 mg/kg, route intravenous
Settings: in vivo, read-out: Vdss
measured_property: Vd (L/kg)

compound="CC(C(=O)N[C@H]1C2CC3CC1C[C@](O)(C3)C2)N1CCN(c2ccc(C(F)(F)F)cn2)CC1 (mixture of isomers)" readout_number=1.6
compound="CC(C(=O)N[C@H]1C2CC3CC1C[C@](O)(C3)C2)N1CCc2ccc3c(c2CC1)OCO3 (stereo partly drawn)" readout_number=2.7
compound="CC(C(=O)N[C@H]1C2CC3CC1C[C@](O)(C3)C2)N1CC(Oc2ccccc2F)C1 (stereo partly drawn)" readout_number=1.2

----------
Target: 11-beta-hydroxysteroid dehydrogenase 1 (Homo sapiens)
Sequence (P28845 whole entry): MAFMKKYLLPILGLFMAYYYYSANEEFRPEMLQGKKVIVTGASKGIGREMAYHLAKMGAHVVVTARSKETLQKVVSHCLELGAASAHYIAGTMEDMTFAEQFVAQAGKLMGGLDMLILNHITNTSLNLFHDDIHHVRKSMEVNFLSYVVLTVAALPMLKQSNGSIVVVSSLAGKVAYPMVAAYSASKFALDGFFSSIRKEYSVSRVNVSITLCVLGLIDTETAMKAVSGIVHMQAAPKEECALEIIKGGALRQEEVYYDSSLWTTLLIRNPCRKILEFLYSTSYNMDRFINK
Assay: Inhibition of human 11beta-HSD1 expressed in Escherichia coli by SPA
pKi: −log10 of the molar value.
measured_property: pKi

molecule=O=C(CN1CCN(c2ccc(C(F)(F)F)cn2)CC1)N[C@H]1C2CC3CC1C[C@](F)(C3)C2 readout_number=7.49
molecule=C[C@@H](C(=O)N[C@H]1C2CC3CC1C[C@](O)(C3)C2)N1CC[C@@H](F)C1 readout_number=7.68
molecule=O=C(CN1CCN(c2ccc(C(F)(F)F)cn2)CC1)N[C@H]1C2CC3CC1C[C@@](O)(C3)C2 readout_number=7.17
molecule="CC(C(=O)N[C@H]1C2CC3CC1C[C@](O)(C3)C2)N1CCN(c2ccc(C(F)(F)F)cn2)CC1 (mixture of isomers)" readout_number=8.30
molecule="N#Cc1cccnc1N1CCN(CC(=O)NC2C3CC4CC(C3)CC2C4)CC1 (stereo not drawn)" readout_number=7.85
molecule=O=C(CN1CCN(c2ccc(C(F)(F)F)cn2)CC1)N[C@H]1C2CC3CC1C[C@](O)(C3)C2 readout_number=8.10
molecule=O=C(CN1CCN(c2ccc(C(F)(F)F)cn2)CC1)N[C@H]1C2CC3CC1C[C@@](F)(C3)C2 readout_number=7.59
molecule=O=C(CN1CC[C@H](C(F)(F)F)C1)N[C@H]1C2CC3CC1C[C@](O)(C3)C2 readout_number=8.52

----------
Molecular target: 11-beta-hydroxysteroid dehydrogenase type 2 (Rattus norvegicus, UniProt P50233)
Sequence (P50233 whole entry): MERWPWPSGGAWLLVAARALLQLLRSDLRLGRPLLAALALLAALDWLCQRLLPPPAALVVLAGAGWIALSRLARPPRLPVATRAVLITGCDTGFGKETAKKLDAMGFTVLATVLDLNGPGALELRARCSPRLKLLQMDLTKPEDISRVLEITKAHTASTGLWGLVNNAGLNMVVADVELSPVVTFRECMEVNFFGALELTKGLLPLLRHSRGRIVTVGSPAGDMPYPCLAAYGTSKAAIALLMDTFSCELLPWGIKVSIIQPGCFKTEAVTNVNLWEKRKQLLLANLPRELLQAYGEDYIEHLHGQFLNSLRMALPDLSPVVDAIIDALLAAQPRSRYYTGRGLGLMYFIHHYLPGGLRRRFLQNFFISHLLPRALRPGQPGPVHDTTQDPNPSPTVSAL
pIC50: −log10 of the molar value.
measured_property: pIC50

compound="CC(C(=O)N[C@H]1C2CC3CC1C[C@](O)(C3)C2)N1CC(Oc2ccccc2F)C1 (stereo partly specified)" measurement_target="11-beta-hydroxysteroid dehydrogenase type 2 (Rattus norvegicus, UniProt P50233)" measured_property=pIC50 result="< 4.00"

----------
Experiment: Half life in rat at 5 mg/kg, po
Format: ADME, organism-based
Parameters: dose 5 mg/kg, route oral
Details: in vivo
measured_property: half-life (h)

compound=O=C(CN1CCN(c2ccc(C(F)(F)F)cn2)CC1)N[C@H]1C2CC3CC1C[C@](O)(C3)C2 readout_number=1.3
compound="CC(C(=O)N[C@H]1C2CC3CC1C[C@](O)(C3)C2)N1CCN(c2ccc(C(F)(F)F)cn2)CC1 (mixture of isomers)" readout_number=1.6

----------
The entries below come with measured Vd values attached.
Assay: Volume of distribution in rat at 5 mg/kg, iv
Format: ADME, organism-based
Set-up: dose 5 mg/kg, route intravenous
Conditions: in vivo, read-out: Vss
measured_property: Vd (L/kg)

compound=O=C(CN1CCN(c2ccc(C(F)(F)F)cn2)CC1)N[C@H]1C2CC3CC1C[C@](O)(C3)C2 readout_number=2.2
compound="CC(C(=O)N[C@H]1C2CC3CC1C[C@](O)(C3)C2)N1CCN(c2ccc(C(F)(F)F)cn2)CC1 (mixture of isomers)" readout_number=1

----------
Measured CLint scaled at 1 µM by item
Assay: Intrinsic clearance in mouse liver microsomes at 1 uM
Type: ADME, Microsome
measured_property: CLint scaled at 1 µM (L/h/kg)

compound=O=C(CN1CCN(c2ccc(C(F)(F)F)cn2)CC1)N[C@H]1C2CC3CC1C[C@@](F)(C3)C2 modifier_sign=< readout_number=6
compound=C[C@H](C(=O)N[C@H]1C2CC3CC1C[C@](O)(C3)C2)N1CC[C@@H](F)C1 modifier_sign=< readout_number=6
compound="CC(C(=O)N[C@H]1C2C[C@@]3(O)CC1C[C@@](O)(C2)C3)N1CCN(c2ccc(C(F)(F)F)cn2)CC1 (mixture of isomers)" modifier_sign=< readout_number=6
compound=C[C@@H](C(=O)N[C@H]1C2CC3CC1C[C@](O)(C3)C2)N1CC[C@@H](F)C1 modifier_sign=< readout_number=6
compound="CC(C(=O)N[C@H]1C2C[C@]3(O)CC1C[C@](F)(C2)C3)N1CCN(c2ccc(C(F)(F)F)cn2)CC1 (mixture of isomers)" modifier_sign== readout_number=56
compound=O=C(CN1CC[C@H](C(F)(F)F)C1)N[C@H]1C2CC3CC1C[C@](O)(C3)C2 modifier_sign== readout_number=60
compound="CO[C@]12CC3C[C@](O)(CC(C1)C3NC(=O)C(C)(C)N1CCN(c3ccc(C(F)(F)F)cn3)CC1)C2 (stereo partly drawn)" modifier_sign== readout_number=60
compound="CO[C@]12CC3CC(C1)[C@@H](NC(=O)C(C)N1CCN(c4ccc(C(F)(F)F)cn4)CC1)C(C3)C2 (mixture of isomers)" modifier_sign== readout_number=11

----------
Assay: Intrinsic clearance in human liver microsomes at 1 uM
Format: ADME, Microsome
measured_property: CLint scaled at 1 µM (mL/min/kg)

compound="CC(C(=O)N[C@H]1C2CC3CC1C[C@](O)(C3)C2)N1CCN(c2ccc(C(F)(F)F)cn2)CC1 (mixture of isomers)" unit_spec=mL/min/kg modifier_sign== readout_number=50
compound="CO[C@]12CC3C[C@](O)(CC(C1)C3NC(=O)C(C)(C)N1CCN(c3ccc(C(F)(F)F)cn3)CC1)C2 (stereo partly specified)" unit_spec=mL/min/kg modifier_sign=< readout_number=16.7
compound="CO[C@]12CC3CC(C1)[C@@H](NC(=O)C(C)N1CCN(c4ccc(C(F)(F)F)cn4)CC1)C(C3)C2 (mixture of isomers)" unit_spec=mL/min/kg modifier_sign== readout_number=50
compound="O=C(CN1CCN(c2ccc(C(F)(F)F)cn2)CC1)NC1C2CC3CC(C2)CC1(O)C3 (racemic)" unit_spec=mL/min/kg modifier_sign== readout_number=217
compound=C[C@H](C(=O)N[C@H]1C2CC3CC1C[C@](O)(C3)C2)N1CC[C@@H](F)C1 unit_spec=mL/min/kg modifier_sign=< readout_number=16.7
compound=CC(C)(C(=O)N[C@H]1C2CC3CC1C[C@](O)(C3)C2)N1CCN(c2ccc(C(F)(F)F)cn2)CC1 unit_spec=mL/min/kg modifier_sign== readout_number=100
compound=O=C(CN1CCN(c2ccc(C(F)(F)F)cn2)CC1)N[C@H]1C2CC3CC1C[C@](F)(C3)C2 unit_spec=mL/min/kg modifier_sign== readout_number=33.3
compound="CC(C(=O)N[C@H]1C2C[C@]3(O)CC1C[C@](F)(C2)C3)N1CCN(c2ccc(C(F)(F)F)cn2)CC1 (mixture of isomers)" unit_spec=mL/min/kg modifier_sign== readout_number=16.7
compound="C[C@@H](C(=O)N[C@H]1C2CC3CC1C[C@](O)(C3)C2)N1CCN(c2ccc(C(F)(F)F)cn2)CC1 (stereo in doubt; (R)-22f)" unit_spec=mL/min/kg modifier_sign== readout_number=16.7
compound=O=C(CN1CCN(c2ccc(C(F)(F)F)cn2)CC1)N[C@H]1C2CC3CC1C[C@@](O)(C3)C2 unit_spec=mL/min/kg modifier_sign== readout_number=183
compound="O=C(CN1CCN(c2ccc(C(F)(F)F)cn2)CC1)NC1C2CC3CC(C2)CC1C3 (stereo unspecified)" unit_spec=mL/min/kg modifier_sign== readout_number=167
